Give measured cAMP agonist: Curve Top for each item. Keep answers brief.
- tested_on: T1, GIP receptor (UniProt P48546 22-466, limits assumed)
- T1 sequence (looked up): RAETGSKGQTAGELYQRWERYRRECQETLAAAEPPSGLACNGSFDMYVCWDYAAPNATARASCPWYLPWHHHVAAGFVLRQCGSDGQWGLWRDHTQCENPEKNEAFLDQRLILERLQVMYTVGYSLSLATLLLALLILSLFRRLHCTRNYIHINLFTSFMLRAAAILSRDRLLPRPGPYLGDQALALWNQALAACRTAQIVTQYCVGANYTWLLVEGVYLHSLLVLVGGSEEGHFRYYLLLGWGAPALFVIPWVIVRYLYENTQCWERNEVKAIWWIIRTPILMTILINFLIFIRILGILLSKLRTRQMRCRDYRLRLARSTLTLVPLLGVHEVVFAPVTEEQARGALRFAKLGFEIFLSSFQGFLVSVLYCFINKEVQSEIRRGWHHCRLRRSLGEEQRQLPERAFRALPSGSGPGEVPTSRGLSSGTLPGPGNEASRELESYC
- procedure_text: cell-based or functional assay
Non-standard residues stand in square brackets, D forms with d. No end group written: not given here. APC = 3-aminopyrrolidine-4-carboxylic acid (cyclic beta amino acid); ACPC = 2-aminocyclopentanecarboxylic acid (cyclic beta amino acid); Aib = CC(C)(N)C(=O)O
One number for each entry, in %.

Solved entries:
- YXEGTFTSDYSXYLXKQAXXEXVNWXLAX (B = alpha-aminoisobutyric acid (Aib) at positions 2 and 20; alpha-to-beta3 amino acid replacement(s) at the bold and underlined position(s) of the printed sequence, which this text does not show) [2004]: 99.1
- Y[Aib]EGTFTSDYSIYLDK[ACPC]AA[Aib][ACPC]FV[APC]WLL[ACPC]G [2010]: 85.5

Give cAMP agonist: Curve Top for each listed item.
1. Y[Aib]EGTFTSDYSIYLD[APC]QA[ACPC][Aib]EF[ACPC]NW[ACPC]LAG [2008]
2. YXEGTFTSDYSIYXDKXAAXXFVXWLLXG (B = alpha-aminoisobutyric acid (Aib) at positions 2 and 20; alpha-to-beta3 amino acid replacement(s) at the bold and underlined position(s) of the printed sequence, which this text does not show) [2005]

[82.8, 96.3]
